The following compounds are shown together with reported pKa values.
assay_remarks: physchem
API doc: respond with a numeric literal and nothing else, no unit.

compound: NC(=O)C1CCN(CC(=O)Nc2nc(-c3ccccc3)cs2)CC1
pKa: 10.2
--
compound: CN1CCN(C2=Nc3cc(Cl)ccc3Nc3ccccc32)CC1
pKa: 7.8
--
compound: CCn1cc(C(=O)O)c(=O)c2cc(F)c(N3CCNCC3)cc21
pKa: 6.05

As a next step, examine the compound that follows.
// returns reported pKa for input CCOC(=O)c1csc(NC(=O)CN2CCCCC2)n1
9.9

====

assay_remarks: physchem
Each entry gets label 0 if its pKa stays under 6, and label 1 if its pKa is 6 or above.

Field: example entries. Status: answers known.
molecule: COc1cc(CN2CCC3(C=Cc4ccccc43)CC2)cc(OC)c1OC
assigned_label: label 1
--
molecule: Cc1ccc(/C(=C\CN2CCCC2)c2ccccn2)cc1 [TRIPROLIDINE]
assigned_label: label 1
--
molecule: COc1ccc(C(=O)CCC(=O)O)cc1
assigned_label: label 0

Is pKa for CC(CN(C)C)CN1c2ccccc2CCc2ccccc21 (stereo unspecified) [TRIMIPRAMINE] at or above 6?
label 1

Is pKa for CN(C)CC/C=C1\c2ccccc2COc2ccccc21 [E-DOXEPIN] at or above 6?
label 1
